The reported numbers originate from patent US9969775B2.

target.system: hCGRP receptor (CALCRL:RAMP1) (Homo sapiens, UniProt O60894+Q16602)
Construct: host or cells: GeneBLAzer CALCRL:RAMP1-CRE-bla Freestyle 293F
Sequence (Q16602 23-461): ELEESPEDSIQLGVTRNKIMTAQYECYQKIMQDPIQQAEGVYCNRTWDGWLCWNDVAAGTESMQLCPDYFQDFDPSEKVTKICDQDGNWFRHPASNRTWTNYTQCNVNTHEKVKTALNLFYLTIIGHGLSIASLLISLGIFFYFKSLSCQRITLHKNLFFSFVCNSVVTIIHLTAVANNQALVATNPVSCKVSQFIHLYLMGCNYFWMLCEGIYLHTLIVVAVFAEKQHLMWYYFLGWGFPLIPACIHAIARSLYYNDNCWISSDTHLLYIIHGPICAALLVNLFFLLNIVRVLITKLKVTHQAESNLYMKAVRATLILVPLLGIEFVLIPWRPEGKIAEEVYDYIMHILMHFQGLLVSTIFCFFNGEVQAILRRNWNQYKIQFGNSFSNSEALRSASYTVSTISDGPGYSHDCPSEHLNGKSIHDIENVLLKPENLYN
Sequence (O60894 27-148): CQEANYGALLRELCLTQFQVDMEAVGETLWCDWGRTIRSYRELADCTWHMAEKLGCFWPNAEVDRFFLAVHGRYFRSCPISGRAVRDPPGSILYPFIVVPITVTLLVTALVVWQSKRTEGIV
procedure.details: CGRP receptor antagonist activity measured by cAMP assay (HTRF)
Assay type: cell-based
experimental.setup: GeneBLAzer CALCRL:RAMP1-CRE-bla Freestyle 293F cells; agonist human α-CGRP; 30 minutes; read-out: hCGRP-R IC50 Ave
Bridge positions count the residues as written; N and C are the ends. Square brackets hold non-standard residues; d marks the D form. Peptide text beside a SMILES is read from it. * marks the point of attachment. Phe(2-CONH2) = NC(=O)c1ccccc1C[C@H](N)C(=O)O; Picolinoyl(5-F) = O=C(c1ccc(F)cn1)*; Orn(iPr) = CC(C)NCCC[C@H](N)C(=O)O; 3Pal = N[C@@H](Cc1cccnc1)C(=O)O; ΔPro = O=C(O)[C@@H]1C=CCN1
experimental.endpoint: pIC50
Kindly note that pIC50 refers to -log10 of the concentration in mol/L and answer with the value alone.

CC(C)NCCC[C@@H]1NC(=O)[C@@H](NC(=O)[C@H](Cc2ccccc2C(N)=O)NC(=O)[C@H](NC(=O)c2ccc(F)cn2)C(C)C)CSSC[C@@H](C(=O)N[C@@H](Cc2cccnc2)C(N)=O)NC(=O)[C@H](Cc2ccccc2C(N)=O)NC(=O)[C@@H]2C=CCN2C(=O)CNC(=O)[C@H](C(C)C)NC(=O)[C@H](CC(=O)O)NC1=O [Compound 66] ({Picolinoyl(5-F)}-[dV][Phe(2-CONH2)]C[Orn(iPr)]DVG[ΔPro][Phe(2-CONH2)]C[3Pal]-NH2; disulfide 3-10)    10.10

Q. So what's the measured pIC50 for this one? CC(C)NCCC[C@@H]1NC(=O)[C@@H](NC(=O)[C@H](Cc2ccc(O)cc2)NC(=O)[C@H](NC(=O)c2ccc(F)cn2)C(C)C)CSSC[C@@H](C(=O)N[C@@H](Cc2cccnc2)C(N)=O)NC(=O)[C@H](Cc2ccccc2)NC(=O)[C@@H]2CCCN2C(=O)CNC(=O)[C@H](C(C)C)NC(=O)[C@H](CC(=O)O)NC1=O [Compound 14] ({Picolinoyl(5-F)}-[dV]YC[Orn(iPr)]DVGPFC[3Pal]-NH2; disulfide 3-10)
A. 9.92

###

target.system: hAM2 receptor (CALCRL:RAMP3) (Homo sapiens, UniProt O60896+Q16602)
Construct: expressed in transfected cells; host or cells: GeneBLAzer CALCRL:RAMP3-CRE-bla Freestyle 293F
Sequence (Q16602 23-461): as the sequence (Q16602 23-461) above
Sequence (O60896 24-148): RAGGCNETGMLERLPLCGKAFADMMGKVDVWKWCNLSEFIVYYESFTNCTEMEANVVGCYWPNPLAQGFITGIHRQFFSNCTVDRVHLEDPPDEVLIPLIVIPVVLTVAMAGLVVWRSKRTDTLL
procedure.details: AM2 receptor antagonist activity measured by cAMP assay (HTRF)
Assay type: cell-based
experimental.setup: selectivity ratio for hCGRP over hAM2, calculated from the IC50 values
Numbered stars: 1 amine (or outer) side, 2 acyl side, 3 side chain; on linkers, the order of the positions; unused ones are H or OH. Bridge positions count the residues as written; N and C are the ends. Square brackets hold non-standard residues; d marks the D form. Peptide text beside a SMILES is read from it. * marks the point of attachment. X5 = O=C([C@H](Cc1ccc(CO)cc1)N[*:1])[*:2]; Triazol3yl(1,2,4-5-NH2) = Nc1nc(*)n[nH]1; Orn(iPr) = CC(C)NCCC[C@H](N)C(=O)O; Benzoyl(4-F) = O=C(c1ccc(F)cc1)*; Oxazole2carbonyl = O=C(c1ncco1)*; 3Pal = N[C@@H](Cc1cccnc1)C(=O)O; Picolinoyl = O=C(c1ccccn1)*; ΔPro = O=C(O)[C@@H]1C=CCN1; Orn = NCCC[C@H](N)C(=O)O
experimental.endpoint: selectivity ratio CGRP/AM2

CC(C)[C@@H]1NC(=O)[C@H](CC(=O)O)NC(=O)[C@H](CCCNC(=N)N)NC(=O)[C@@H](NC(=O)[C@H](Cc2ccc(O)cc2)NC(=O)[C@H](NC(=O)c2ncco2)C(C)C)CSSC[C@@H](C(=O)N[C@@H](Cc2cccnc2)C(N)=O)NC(=O)[C@H](Cc2cccnc2)NC(=O)[C@@H]2CCCN2C(=O)CNC1=O [Compound 11] (Oxazole2carbonyl-[dV]YCRDVGP[3Pal]C[3Pal]-NH2; disulfide 3-10)    198
CC(C)[C@@H]1NC(=O)[C@H](CC(=O)O)NC(=O)[C@H](CCCN)NC(=O)[C@@H](NC(=O)[C@H](Cc2ccc(O)cc2)NC(=O)[C@H](NC(=O)c2ccccn2)C(C)C)CSSC[C@@H](C(=O)N[C@@H](Cc2cccnc2)C(N)=O)NC(=O)[C@H](Cc2ccc(CO)cc2)NC(=O)[C@@H]2CCCN2C(=O)CNC1=O [Compound 25] (Picolinoyl-[dV]YC[Orn]DVGP[X5]C[3Pal]-NH2; disulfide 3-10)    1071
CC(C)NCCC[C@@H]1NC(=O)[C@@H](NC(=O)[C@H](Cc2ccc(O)cc2)NC(=O)[C@H](NC(=O)c2ncco2)C(C)C)CSSC[C@@H](C(=O)N[C@@H](Cc2cccnc2)C(N)=O)NC(=O)[C@H](Cc2ccc(CO)cc2)NC(=O)[C@@H]2C=CCN2C(=O)CNC(=O)[C@H](C(C)C)NC(=O)[C@H](CC(=O)O)NC1=O [Compound 70] (Oxazole2carbonyl-[dV]YC[Orn(iPr)]DVG[ΔPro][X5]C[3Pal]-NH2; disulfide 3-10)    727
CC(C)[C@@H]1NC(=O)[C@H](CC(=O)O)NC(=O)[C@H](CCCNC(=N)N)NC(=O)[C@@H](NC(=O)[C@H](Cc2ccc(O)cc2)NC(=O)[C@H](NC(=O)c2ccc(F)cc2)C(C)C)CSSC[C@@H](C(=O)N[C@@H](Cc2cccnc2)C(N)=O)NC(=O)[C@H](Cc2ccccc2)NC(=O)[C@@H]2C=CCN2C(=O)CNC1=O [Compound 4] ({Benzoyl(4-F)}-[dV]YCRDVG[ΔPro]FC[3Pal]-NH2; disulfide 3-10)    172

Turning now to a further compound:
Q. Give the measured selectivity ratio CGRP/AM2 of CC(C)[C@@H]1NC(=O)[C@H](CC(=O)O)NC(=O)[C@H](CCCNc2nc(N)n[nH]2)NC(=O)[C@@H](NC(=O)[C@H](Cc2ccc(O)cc2)NC(=O)[C@H](NC(=O)c2ccccn2)C(C)C)CSSC[C@@H](C(=O)N[C@@H](Cc2cccnc2)C(N)=O)NC(=O)[C@H](Cc2ccccc2)NC(=O)[C@@H]2CCCN2C(=O)CNC1=O [Compound 27] (Picolinoyl-[dV]YC[Orn](Triazol3yl(1,2,4-5-NH2))DVGPFC[3Pal]-NH2; disulfide 3-10) .
A. 765
